Entry source: paper PMC5412877

Subject of test: GCN5L2 (Homo sapiens)
Construct: made in house
Sequence (Q92830 728-832 limits assumed): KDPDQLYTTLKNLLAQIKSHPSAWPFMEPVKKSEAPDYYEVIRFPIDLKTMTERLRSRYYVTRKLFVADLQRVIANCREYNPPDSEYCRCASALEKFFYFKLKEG
Test: Differential scanning fluorimetry (DSF), GCN5 (GCN5L2) Brd
Assay type: binding
Experimental conditions: compound 10 μM; read-out: GCN5L2 ΔTm (°C) (DSF)
Measurement kind: ΔTm at 10 µM (°C)
One number for each entry, in °C.

Look over these answered cases.
- Cc1nnc2c3ccccc3c(N[C@@H](C)[C@H](c3ccccc3)N(C)C)nn12 (relative stereo): 5
- Cc1nnc2c3ccccc3c(N[C@@H]3CCC[C@H]3N(C)C)nn12: 0.3

Consider the additional molecule presented here.
Reported ΔTm at 10 µM, molecule Cc1nnc2c3ccccc3c(NCC3CCCCN3C)nn12 (stereo not drawn) : ____ 1.1
